system: NCI/ADR-RES ovarian; experiment: NCI-60 one-dose screen, 48 h; conditions: 10 µM unless noted
About 83,000 compounds went through this panel and 20% of them were active in at least one assay; those are over-represented in the sample as a whole. Calls of active or inactive are those of the source. How the source made its calls: active means growth percent below 10; inactive means the rest.
Write down one outcome, taken from active, inactive

Example entries and their recorded answers appear below.
>  <compound>
C[C@H](C(=O)N(CCc1ccc(Cl)c(Cl)c1)Cc1cncs1)[C@@H]1CC[C@H](C[C@H](C)n2cc(CN3CCC(c4ccc(Cl)cc4)CC3)nn2)O1

>  <groupLabel>
inactive

$$$$
>  <compound>
N#C/C(=C\C=C\c1ccc(-c2cc(Cl)ccc2Cl)o1)c1nc2ccccc2s1

>  <groupLabel>
inactive

$$$$
>  <compound>
CCOC(=O)/C=C1\S/C(=N\Nc2cc(=O)[nH]c3ccccc23)N(c2ccccc2)C1=O

>  <groupLabel>
inactive

$$$$
>  <compound>
O=C1c2ccccc2C(=O)c2c1cc1c(c2[N+](=O)[O-])OCO1

>  <groupLabel>
active

$$$$
>  <compound>
Cc1ccc(/C=C/C(=O)c2cccc(OCCCOc3cccc(C(=O)/C=C/c4ccc(C)cc4)c3)c2)cc1

>  <groupLabel>
inactive

$$$$
>  <compound>
Nc1[nH]n2cc(-c3ccc(F)cc3)nc2c1N=Nc1ccc(S(N)(=O)=O)cc1

>  <groupLabel>
inactive

$$$$
>  <compound>
CCOC(=O)CC1CSC(Nc2ccccc2)=N1 (centres undefined)

>  <groupLabel>
inactive

$$$$
>  <compound>
CC(=O)O[C@H]1C[C@@H]2C(C)(C)C(=O)CC[C@@]2(C)c2ccc(C(C)C)cc21

>  <groupLabel>
inactive

$$$$
>  <compound>
O=C(CN1CCN(c2cc3c(cc2F)c(=O)c(C(=O)O)cn3C2CC2)CC1)N/N=C/c1ccco1

>  <groupLabel>
inactive

$$$$
>  <compound>
O=C1C(Nc2ccccn2)=C(I)C(=O)c2ncccc21

>  <groupLabel>
active

$$$$

How did this test come out for "O=C1/C=C/[C@@H](O)[C@@H]2C[C@@H](O)C[C@H]2/C=C/CCC[C@H](CCO)O1" ?
active

Entry to check: "Oc1c(CN2CCOCC2)cc(COCc2ccccc2)c2cccnc12"
active

Entry to check: "N#CSc1c[nH]c2cccc(/C=C/C(=O)/C=C(O)/C=C/c3cccc4[nH]cc(SC#N)c34)c12"
inactive

Entry to check: "Cc1ccc(S(=O)(=O)c2nc(-c3ccccc3)oc2Sc2nc3ccccc3s2)cc1"
inactive

Entry to check: "CC(=O)c1ccc(Nc2nccc(-c3ccc4ccccc4c3)n2)cc1"
inactive

Entry to check: "O=C(NNC(=O)c1ccc(NC(=O)c2ccccn2)cc1)Nc1ccc2ccccc2c1"
inactive

Entry to check: CNC(C)[C@H]1CCC2C3CC=C4C(=O)[C@@H](NC(=O)C=C(C)C)CC[C@]4(C)C3CC[C@@]21C (some centres undefined)
inactive

Entry to check: "COC(=O)c1cc(Br)ccc1O"
inactive

Entry to check: Nc1nc(N)c2c(n1)NC(c1cccc(Nc3ccnc4cc(C(F)(F)F)ccc34)c1)CC(c1ccc(Br)cc1)=N2 (centres undefined)
inactive

====

system: COLO 205 colon; assay: NCI-60 one-dose screen, 48 h; conditions: 10 µM unless noted
This is part of a sample that, as a whole, favours compounds with a hit. Of some 83,000 tested, about 20% had one in any assay. The source made the active and inactive calls. The calls were made as follows: active = growth percent below 10; inactive = the rest.
Write down one outcome, taken from 1.0 = active, 0.0 = inactive

Example entries and their recorded answers appear below.
>  <compound>
O=C(O)[C@@H](Cc1ccc2ccccc2c1)NC(=O)n1c2ccccc2c2ccccc21

>  <assayedSystem>
COLO 205 colon

>  <groupLabel>
1.0

$$$$
>  <compound>
O=C(O)COc1ccc(Cl)c(Cl)c1

>  <assayedSystem>
COLO 205 colon

>  <groupLabel>
0.0

$$$$
>  <compound>
[2H]C([2H])([2H])Oc1ccc(F)cc1/C=C/C(=O)/C=C(/C=C/c1cc(F)ccc1OC([2H])([2H])[2H])OB(F)F

>  <assayedSystem>
COLO 205 colon

>  <groupLabel>
0.0

$$$$
>  <compound>
CC1(C)CC(=O)c2c(nn(-c3ccc(Br)cc3)c2-c2cn(-c3ccccc3)nc2-c2cccnc2)C1

>  <assayedSystem>
COLO 205 colon

>  <groupLabel>
0.0

$$$$

How did this test come out for "C/C(Cc1ccc(Cl)cc1)=C(\c1ccc(OCCCN(C)C)cc1)c1ccc(OC(=O)Cc2ccccc2)cc1" ?
0.0

Entry to check: "O=C1c2ccccc2C(=O)C1c1ccc(Br)cc1"
0.0

Entry to check: "CN1CCN(Cc2ccc(NC(=O)c3cncc(C#Cc4cnc(N)c5ncccc45)c3)cc2C(F)(F)F)CC1"
1.0

Entry to check: Nc1nc(N)c2c(n1)NC(c1cccc(Nc3ccnc4cc(C(F)(F)F)ccc34)c1)CC(c1ccccc1)=N2 (stereo not drawn)
0.0

Entry to check: "COc1ccc(/C(C)=C(/c2ccc(OCCCN(C)C)cc2)c2ccc(OC(=O)c3ccccc3)cc2)cc1"
0.0

Entry to check: "CCNC(=O)Oc1ccc(/C(=C(/C)Cc2ccc(OC)cc2)c2ccc(OCCN3CCCCC3)cc2)cc1"
0.0

Entry to check: "CC1(C)CC2=C3C=C[C@@H]4[C@@]5(C)CCC(=O)C(C)(C)[C@@H]5CC[C@@]4(C)[C@]3(C)CC[C@@]2(C(=O)O)C[C@H]1O"
0.0

Entry to check: "NS(=O)(=O)c1ccc(-c2cc(-c3nnc(SCC(=O)Nc4ccc(C(=O)/C=C/c5ccc(Cl)cc5)cc4)n3-c3ccccc3)c3ccccc3n2)cc1"
0.0

Entry to check: "O=C1Nc2ccccc2/C1=C\c1c[nH]c2ccc(Br)cc12"
0.0

Entry to check: "N#C/C(=C\C=C\c1ccc(-c2cc(Cl)ccc2Cl)o1)c1nc2ccccc2s1"
0.0

Entry to check: "Cc1ccc(-c2csc(NC(=O)c3ccccc3CN3C(=O)c4ccccc4C3=O)n2)cc1"
0.0

====

We begin with a simple list: items and their reported growth.
test system: HOP-92 NSCLC; test: NCI-60 one-dose screen, 48 h (100 = growth as untreated, 0 = no growth, -100 = all killed); settings: 10 µM unless noted
The panel holds about 83,000 compounds, 20% with a hit somewhere; the sample as a whole holds those more often.
Give the number; % is assumed, so skip it.

>  <compound>
O=S(=O)(NCCNc1nccc(-c2c(-c3ccc(F)c(O)c3)nc3sccn23)n1)c1ccc(F)cc1

>  <growth [%]>
33.6

$$$$
>  <compound>
Cc1ccc(S(=O)(=O)c2nc(-c3ccccc3)oc2Sc2nc3ccccc3s2)cc1

>  <growth [%]>
73.9

$$$$
>  <compound>
COc1cc(OC)cc(-c2ccc(-c3ccc(C(=N)N)o3)o2)c1

>  <growth [%]>
69.2

$$$$
>  <compound>
Cc1cccc(N2CCC(=O)NC2=S)c1

>  <growth [%]>
105

$$$$
>  <compound>
COc1ccc(C(=O)/C=C/c2ccc(Cl)cc2)cc1S(=O)(=O)Nc1c(N)nc(SC)[nH]c1=O

>  <growth [%]>
73.7

$$$$
>  <compound>
O=S(=O)(NCCNc1nccc(-c2c(-c3cccc(O)c3)nc3occn23)n1)c1ccc(Br)cc1

>  <growth [%]>
33.2

$$$$
>  <compound>
CC1=C(CCC(C)NCc2ccc(OCCCN3CCCCC3)cc2)C(C)(C)CCC1 (centres undefined)

>  <growth [%]>
-83

$$$$
>  <compound>
COC(=O)N1CC(Oc2ccccn2)C2CC1c1ccccc1O2 (centres undefined)

>  <growth [%]>
90.3

$$$$
>  <compound>
COc1cccc(Nc2ncnc3cc(NC(=O)CCl)ccc23)c1

>  <growth [%]>
-74.8

$$$$
>  <compound>
CN1CCN(CCOc2ccc(-c3cnc4c(-c5ccc(F)cc5)cnn4c3)cc2)CC1

>  <growth [%]>
54.9

$$$$

Looking for the measured growth of "CC(C)(C)c1cc(Cl)c(O)c(CNCCO)c1" , can you help?
90.8

====

System: OVCAR-4 ovarian
Experiment: NCI-60 one-dose screen, 48 h (100 = growth as untreated, 0 = no growth, -100 = all killed)
Settings: 10 µM unless noted
Method: Growth inhibition of the OVCAR-4 human tumor cell line is measured as a screen for anti-cancer activity. Cells are grown in 96 well plates and exposed to the test compound for 48 hours. Compounds are tested at a single concentration, which is 10^-5 M for most compounds. The reported endpoint is percent growth (GI% or GIPRCNT), where numbers from 0 - 100% represent growth inhibition, and numbers from -100% - 0 represent cell death. For example, a value of 40 represents 60% growth inhibition. […]
The panel holds about 83,000 compounds, 20% with a hit somewhere; the sample as a whole holds those more often.
Please enter 1 (yes) where growth is greater than or equal to 90%, and 0 (no) where it is lower.

Example entries and their recorded answers appear below.
>  <compound>
NS(=O)(=O)c1ccc(-c2cc(-c3nnc(SCC(=O)Nc4ccc(C(=O)/C=C/c5ccc(Cl)cc5)cc4)n3-c3ccccc3)c3ccccc3n2)cc1

>  <groupLabel>
1 (yes)

$$$$
>  <compound>
COc1ccc(C(=O)/C=C/c2ccc(Cl)cc2)cc1S(=O)(=O)Nc1c(N)nc(SC)[nH]c1=O

>  <groupLabel>
0 (no)

$$$$

Textbook exercise: given the entry "CN(CCCNC(=O)Cc1ccc2ccc3cccc4ccc1c2c34)CCCNc1cc(-c2ccc3ccccc3c2)nc2ccccc12" , state whether its growth is greater than or equal to 90%.
0 (no)

Entry to check: CCN1C(=O)N(CC)C2C1NC(=S)N2/N=C/c1ccc(C(F)(F)F)cc1 (centres undefined)
0 (no)

Entry to check: "CN1CCN(CCOc2ccc(-c3cnc4c(-c5ccc(F)cc5)cnn4c3)cc2)CC1"
0 (no)

Entry to check: "CC/C=C\C[C@H](O)C/C=C1/C(=O)C=C[C@@H]1C/C=C\CCCC(=O)O"
0 (no)

Entry to check: "NC(N)=NS(=O)(=O)c1ccc(NC2=C(I)C(=O)c3ncccc3C2=O)cc1"
1 (yes)
